- STUDY_TARGET: H1047R PIK3CA enzyme (Homo sapiens, UniProt P42336, H1047R)
- Sequence (P42336 whole entry H1047R): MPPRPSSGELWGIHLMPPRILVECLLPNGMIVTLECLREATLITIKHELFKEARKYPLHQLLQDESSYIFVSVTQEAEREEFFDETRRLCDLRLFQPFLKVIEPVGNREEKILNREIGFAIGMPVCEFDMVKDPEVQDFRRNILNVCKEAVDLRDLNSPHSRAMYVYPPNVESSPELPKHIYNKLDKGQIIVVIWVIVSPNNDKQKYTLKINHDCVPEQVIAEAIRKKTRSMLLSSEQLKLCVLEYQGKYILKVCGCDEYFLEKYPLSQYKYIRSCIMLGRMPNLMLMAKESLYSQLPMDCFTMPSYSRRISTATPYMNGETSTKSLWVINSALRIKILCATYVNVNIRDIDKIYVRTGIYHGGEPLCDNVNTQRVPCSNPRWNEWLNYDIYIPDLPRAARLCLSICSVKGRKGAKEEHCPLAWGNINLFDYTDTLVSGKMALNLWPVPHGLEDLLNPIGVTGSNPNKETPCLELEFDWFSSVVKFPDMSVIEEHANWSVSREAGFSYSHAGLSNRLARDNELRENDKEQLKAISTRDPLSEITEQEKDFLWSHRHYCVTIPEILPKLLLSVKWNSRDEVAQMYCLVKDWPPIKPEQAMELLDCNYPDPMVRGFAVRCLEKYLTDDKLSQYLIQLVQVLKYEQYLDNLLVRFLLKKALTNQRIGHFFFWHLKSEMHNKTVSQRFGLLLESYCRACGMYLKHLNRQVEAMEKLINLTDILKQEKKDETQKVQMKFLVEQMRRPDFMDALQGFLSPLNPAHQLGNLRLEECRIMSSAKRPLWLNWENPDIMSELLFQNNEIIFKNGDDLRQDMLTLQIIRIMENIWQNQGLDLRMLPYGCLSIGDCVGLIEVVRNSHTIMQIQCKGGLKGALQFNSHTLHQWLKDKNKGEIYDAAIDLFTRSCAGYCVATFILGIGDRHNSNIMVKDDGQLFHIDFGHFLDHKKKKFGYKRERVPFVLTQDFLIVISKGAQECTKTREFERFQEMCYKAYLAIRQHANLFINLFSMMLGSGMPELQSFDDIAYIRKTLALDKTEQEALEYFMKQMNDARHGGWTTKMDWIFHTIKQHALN
- Sequence (P27986 whole entry partner): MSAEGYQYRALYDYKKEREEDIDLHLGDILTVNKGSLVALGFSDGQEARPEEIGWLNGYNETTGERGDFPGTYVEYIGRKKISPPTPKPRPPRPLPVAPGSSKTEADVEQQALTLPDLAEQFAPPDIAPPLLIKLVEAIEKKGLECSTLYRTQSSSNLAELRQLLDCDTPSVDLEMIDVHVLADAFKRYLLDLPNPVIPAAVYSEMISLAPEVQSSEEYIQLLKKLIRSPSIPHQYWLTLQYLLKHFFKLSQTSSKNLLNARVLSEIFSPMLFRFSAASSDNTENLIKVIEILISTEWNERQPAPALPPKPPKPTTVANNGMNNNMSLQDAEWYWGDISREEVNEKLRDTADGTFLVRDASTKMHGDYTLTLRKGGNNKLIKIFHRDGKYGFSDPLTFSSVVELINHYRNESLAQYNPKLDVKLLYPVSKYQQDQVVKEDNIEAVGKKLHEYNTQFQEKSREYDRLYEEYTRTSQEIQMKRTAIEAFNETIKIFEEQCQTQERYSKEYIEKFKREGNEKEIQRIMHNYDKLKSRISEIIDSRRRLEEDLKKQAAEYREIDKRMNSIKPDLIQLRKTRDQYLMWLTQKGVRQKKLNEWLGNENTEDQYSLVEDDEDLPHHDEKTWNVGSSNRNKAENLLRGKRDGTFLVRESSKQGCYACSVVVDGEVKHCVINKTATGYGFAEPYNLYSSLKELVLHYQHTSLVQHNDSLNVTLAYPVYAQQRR
- ASSAY_PROCEDURE: ADP-Glo Biochemical PIK3CA Kinase Assay
pIC50: −log10 of the molar value.
I'd be grateful if you could share measured pIC50 for these entries.

Req: // fetch pIC50 given entry N#Cc1cnn2ccc(-c3cc(NC(=O)c4cc(F)cc(C(F)(F)F)c4)c4c(c3)C(=O)N[C@@H]4c3cc(F)ccc3Cl)cc12 [Compound I-1798]
Resp: 5.00 to 6.00

Req: // fetch pIC50 given entry Cc1ccccc1C1NC(=O)c2cccc(NC3(c4cc(F)cc(C(F)(F)F)c4)COC3)c21 (stereo not shown) [Compound I-492]
Resp: 5.00 to 6.00

Req: // fetch pIC50 given entry O=C1NC(c2cc(F)ccc2Cl)c2c(NC(=O)N3CCOC(C(F)(F)F)C3)cc(Br)cc21 (stereo not shown) [Compound I-1810]
Resp: 5.00 to 6.00

Req: // fetch pIC50 given entry Cc1ccccc1[C@H]1NC(=O)c2cccc(NC(=O)c3nsc4ccccc34)c21 [Compound I-73]
Resp: 6.00 to 6.30

###

I'd be grateful if you could share measured pIC50 for these entries.
- STUDY_TARGET: H1047R PIK3CA enzyme (Homo sapiens, UniProt P42336, H1047R)
- ASSAY_PROCEDURE: ADP-Glo Biochemical PIK3CA Kinase Assay
pIC50: −log10 of the molar value.

Req: // fetch pIC50 given entry CS(=O)(=O)c1ccccc1-c1cc(NC(=O)c2cc(F)cc(C(F)(F)F)c2)c2c(c1)C(=O)NC2c1cc(F)ccc1Cl (stereo not shown) [Compound I-1195]
Resp: ≥ 7.00

Req: // fetch pIC50 given entry O=C1NC(c2ccccc2OC(F)(F)F)c2c(NC(=O)c3csc4ccccc34)ccnc21 (stereo not shown) [Compound I-70]
Resp: 5.00 to 6.00

Req: // fetch pIC50 given entry COc1ccccc1C(=O)Nc1cc(Br)cc2c1C(c1cc(F)ccc1Cl)NC2=O (stereo not shown) [Compound I-471]
Resp: 4.00 to 5.00

Req: // fetch pIC50 given entry O=C1N[C@H](c2cc(F)ccc2Cl)c2c(NC(=O)[C@H]3CCCNC3)cc(-c3ccc4ncnn4c3)cc21 (racemic) [Compound I-1848]
Resp: 4.00 to 5.00

Req: // fetch pIC50 given entry N#CC[C@@H](O)c1cc(NC(=O)c2cc(F)cc(C(F)(F)F)c2)c2c(c1)C(=O)N[C@@H]2c1cc(F)ccc1Cl (single isomer, unassigned) [Compound I-1391]
Resp: 5.00 to 6.00

Req: // fetch pIC50 given entry O=C(Nc1cc(Nc2ncc[nH]2)cc2c1C(c1cc(F)ccc1Cl)NC2=O)c1cc(F)cc(C(F)(F)F)c1 (stereo not shown) [Compound I-999]
Resp: ≥ 7.00

Req: // fetch pIC50 given entry O=C(Nc1cc(OCC(O)CCO)cc2c1C(c1cc(F)ccc1Cl)NC2=O)c1cc(F)cc(C(F)(F)F)c1 (stereo not shown) [Compound I-1414]
Resp: ≥ 7.00

###

- STUDY_TARGET: H1047R PIK3CA enzyme (Homo sapiens, UniProt P42336, H1047R)
- ASSAY_PROCEDURE: ADP-Glo Biochemical PIK3CA Kinase Assay
pIC50: −log10 of the molar value.
RECORDED_METRIC: pIC50

Req: // fetch pIC50 given entry Cn1cc(NS(=O)(=O)Cc2cc(NC(=O)c3cc(F)cc(C(F)(F)F)c3)c3c(c2)C(=O)NC3c2cc(F)ccc2Cl)cn1 (stereo not shown) [Compound I-1535]
Resp: ≥ 7.00

Req: // fetch pIC50 given entry O=C(Nc1cc(-c2ccc3ocnc3n2)cc2c1C(c1cc(F)ccc1Cl)NC2=O)c1cc(F)cc(C(F)(F)F)c1 (stereo not shown) [Compound I-1553]
Resp: ≥ 7.00

Req: // fetch pIC50 given entry Cn1cc(-c2cc(NC(=O)c3cc(F)cc(Cl)c3)c3c(n2)C(=O)N[C@@H]3c2cc(F)ccc2Cl)cn1 [Compound I-384]
Resp: 5.00 to 6.00

Req: // fetch pIC50 given entry O=C1N[C@@H](c2cc(F)ccc2Cl)c2c(NC(=O)N3C[C@@](O)(C(F)F)c4cc(F)ccc43)cc(Cl)cc21 (single isomer, unassigned) [Compound I-2588]
Resp: 5.00 to 6.00

Req: // fetch pIC50 given entry N#CCc1ccc(NC(=O)N2C[C@@](O)(C(F)(F)F)c3cc(F)ccc32)c2c1C(=O)N[C@@H]2c1cc(F)ccc1Cl (single isomer, unassigned) [Compound I-2617]
Resp: 5.00 to 6.00

Req: // fetch pIC50 given entry O=C(Nc1cc(-c2ccc3ncnn3c2)nc2c1[C@H](c1cc(F)ccc1Cl)NC2=O)c1cc(F)cc(C(F)(F)F)c1 [Compound I-1229]
Resp: ≥ 7.00

Req: // fetch pIC50 given entry O=C1NC(c2cc(F)ccc2Cl)c2c(NC(=O)[C@H]3C[C@H](O)c4ccccc43)cc(Br)cc21 (mixture of isomers) [Compound I-1943]
Resp: 4.00 to 5.00

Req: // fetch pIC50 given entry O=C1CCc2cc(F)cc(C(=O)Nc3cccc4c3C(c3cc(F)ccc3Cl)NC4=O)c2N1 (stereo not shown) [Compound I-1545]
Resp: 4.00 to 5.00

Req: // fetch pIC50 given entry O=C1NC(c2cc(F)ccc2Cl)c2c(NC(=O)c3cc(F)cc4ccc(=O)[nH]c34)cc(Br)cc21 (stereo not shown) [Compound I-1424]
Resp: 5.00 to 6.00

Req: // fetch pIC50 given entry O=C1NC(c2cc(F)ccc2Cl)c2c(NC(=O)C3CCCC(C(F)(F)F)C3)cc(-c3ccc4ncnn4c3)cc21 (mixture of isomers) [Compound I-1816]
Resp: ≥ 7.00

Req: // fetch pIC50 given entry O=C1N[C@H](c2cc(F)ccc2Cl)c2c(NC(=O)[C@H]3CC[C@@H](O)C3)cc(Br)cc21 (single isomer, unassigned) [Compound I-2103]
Resp: 4.00 to 5.00

Req: // fetch pIC50 given entry COc1ncc(-c2cc(NC(=O)c3cc(F)cc(C(F)(F)F)c3)c3c(c2)C(=O)NC3c2cc(F)ccc2Cl)cc1F (stereo not shown) [Compound I-1419]
Resp: ≥ 7.00

Req: // fetch pIC50 given entry O=C1NC(c2ccccc2Cl)c2c(NC(=O)c3nsc4ccccc34)ccnc21 (stereo not shown) [Compound I-172]
Resp: 6.30 to 7.00
